// provenance: patent US10239925B2

TARGET_DESC: HLA-A*02:01 (Homo sapiens, UniProt P04439, D140Y/D185E/D98H/E176V/E277Q/G131W/G231S/I119V/I121R/I166T/I218V/L300P/L318F/N151K/N90K/P208A/P217A/Q86G/Q94H/R138H/R169H/T345S)
PROCEDURE_SUMMARY: MHC binding assay (UV-ligand exchange, anti-β2m ELISA, peptide exchange yield)
MEASUREMENT_CONDITIONS: binding to HLA-A*02:01
PARAMETER_MEASURED: Peptide exchange (MHC class I binding score, peptide exchange yield)

Use the examples below as a reference point.
* 221 (ALYEEGLLL; listed as Homo sapiens) [compound 221] | “++” (>20% = ++)
* 371 (FLQAHLHTA; listed as Homo sapiens) [compound 371] | “++++” (>75% = ++++)
* 33 (VLLSLLEKV; listed as Homo sapiens) [compound 33] | “++” (>20% = ++)
* 593 (GLPRFGIEMV; listed as Homo sapiens) [compound 593] | “+++” (>50 = +++)
* 204 (KIAENVEEV; listed as Homo sapiens) [compound 204] | “++” (>20% = ++)
* 511 (FLDPYCSASV; listed as Homo sapiens) [compound 511] | “++” (>20% = ++)
* 172 (VLYSYTIITV; listed as Homo sapiens) [compound 172] | “++” (>20% = ++)
* 623 (YLVEDIQHI; listed as Homo sapiens) [compound 623] | “+++” (>50 = +++)

Challenge: Write down Peptide exchange (MHC class I binding score, peptide exchange yield) measured for item 329 (FLVTLNNVEV; listed as Homo sapiens) [compound 329]
Response given: “++++” (>75% = ++++)
